# tested.target: GABA-A receptor; anion channel (Rattus norvegicus) (UniProt O09028+P15431+P18506+P18508+P19969+P20236+P23574+P23576+P28471+P28473+P30191+P62813+P63079+P63138+Q91ZM7+Q9ES14)
# test.name: Displacement of [3H]flunitrazepam from GABA-A receptor of rat cerebellum
# Assay type: tissue-based
# Design: concentration or dose not given beside the values
Please respond with reported Displacement for every item in the list.
Entry format: amount then unit.

// sample Cc1ccc(S(=O)(=O)N2CCc3ccccc3[C@@H]2[C@H]2CCC(=O)O2)cc1 (racemic) , its Displacement was 66%

The molecule `CN(C)S(=O)(=O)N1CCc2ccccc2[C@@H]1[C@H]1CCC(=O)O1` showed Displacement equal to 20%

# molecule `O=C1CC[C@H]([C@H]2c3ccccc3CCN2S(=O)(=O)c2ccc(C(F)(F)F)cc2)O1` ; its Displacement = 42%

Measured Displacement of O=C1CC[C@H]([C@H]2c3ccccc3CCN2S(=O)(=O)c2ccccc2)O1 (racemic) : 74%

Field Displacement (entry O=C1CC[C@H]([C@H]2c3ccccc3CCN2S(=O)(=O)c2ccc(Cl)cc2)O1 (racemic) ) reads 43%

Sure, the documented Displacement for Cc1ccc(S(=O)(=O)N2CCc3ccccc3[C@@H]2[C@H]2CCC(=O)O2)cc1 (stereo in doubt; 2c) is 61%

Record summary for Cc1ccc(S(=O)(=O)N2CCc3ccccc3[C@@H]2[C@H]2CCC(=O)O2)cc1 (stereo in doubt) : reported Displacement = 67%

For this molecule ( `O=C1CC[C@H]([C@H]2c3ccccc3CCN2S(=O)(=O)c2ccc3ccccc3c2)O1` ), measured Displacement is 14%

# molecule `O=C1CC[C@H]([C@H]2c3ccccc3CCN2S(=O)(=O)c2cccs2)O1` ; its Displacement = 66%

Short answer for `CS(=O)(=O)N1CCc2ccccc2[C@@H]1[C@H]1CCC(=O)O1` : Displacement was 26%
